Answer each item with its documented GI50.
Tested on: HOP-62 NSCLC
Method: NCI tumour cell line growth inhibition, 48 h

Please look at this molecule and report its GI50: CCOC(=O)c1c(C(F)(F)F)n([O-])c2ccc(Cl)cc2[n+]1=O 1.88 µM

Supply recorded GI50 for CC(=O)Nc1cc(C(c2ccccc2)c2ccccc2)cc(C(c2ccccc2)c2ccccc2)c1C here. > 100 µM

Could you please provide reported GI50 for C=C1C(=O)O[C@H]2[C@H]1CC/C(COC(=O)c1cccc3ccccc13)=C\CC[C@@]1(C)O[C@@H]21 ? Thanks! 1.76 µM

Specify reported GI50 for the molecule shown: CCOP(=O)(CCN1CCN(CCCCCOc2cc3c(cc2OC)C(=O)N2CCC[C@H]2C=N3)CC1)OCC 23 µM

Tell me measured GI50 for Cc1cc(C(=O)N2CCN(C)CC2)c2c(=O)n(-c3ccccc3)c(=O)n(CC(O)CN3CCN(c4ncccn4)CC3)c2n1 (stereo not given) please. > 100 µM

====

Would you kindly list TGI for each of these compounds?
Tested on: NCI-H460 lung
Method: NCI tumour cell line growth inhibition, 48 h

Given the compound COc1cc(CCC(=O)O)c2cc3ccccc3cc2c1O , write its reported TGI. 47.2 µM

Indicate its recorded TGI; the compound in question is Clc1ccc(/C=C/c2nc(-c3ccc(Cl)cc3)cn3c2nc2ccccc23)cc1 > 100 µM

# return recorded TGI for input COc1cc(-c2ccccc2)c(OC)cc1CCl > 100 µM

For CCN1CCN(CC(=O)Nc2nc3ccc(NCc4ccc(C)cc4)cc3s2)CC1 , write its TGI. 7.71 µM

Consider the compound COc1ccc(-c2nnc(Nc3nc(O)c(C4=c5cc(OC(F)(F)F)ccc5=NC4=O)s3)o2)cc1 and give its recorded TGI. > 100 µM

Provide one value: measured TGI of c1csc(-c2cscc2-c2cccs2)c1 > 100 µM

Look up and state reported TGI for CC(=O)Nc1cc(C(c2ccccc2)c2ccccc2)cc(C(c2ccccc2)c2ccccc2)c1C > 100 µM

Indicate the recorded TGI value for this compound: NC(CCC(=O)NC(CSC(=O)N(O)c1ccc(Cl)cc1)C(=O)NCC(=O)O)C(=O)O (stereo not drawn) > 0.5 µM

====

Kindly state TGI for each of the entries shown.
Tested on: OVCAR-5 ovarian
Method: NCI tumour cell line growth inhibition, 48 h
Numeric answer only, unit µM assumed.

Return TGI (reported value) for this compound: O=C(O)c1ccccc1-c1ccccc1C(=O)Nc1ccc2c(c1)Cc1ccccc1-2 49.2

Tell me its TGI given COc1ccc(-c2nnc(Nc3nc(O)c(C4=c5cc(OC(F)(F)F)ccc5=NC4=O)s3)o2)cc1 as the entry. 43.6

Look up and report measured TGI for this entry: CC(C)(C)OC(=O)N1CCCC1C(=O)NCCNc1ccc(NCCNC(=O)C2CCCN2C(=O)OC(C)(C)C)c2c1C(=O)c1ccccc1C2=O (stereo not given) 30.6

Identify TGI associated with the compound Nc1cccc(/C=C/CN2CCN(CCOC(c3ccccc3)c3ccccc3)CC2)c1 30.5

====

Tested on: SK-MEL-5 melanoma
Method: NCI tumour cell line growth inhibition, 48 h
Property measured: GI50

Recall and state the measured GI50 for O=C(Nc1ccc2cc3ccc(NC(=O)N4CCCCCC4)cc3nc2c1)N1CCCCCC1 . 1480 nM

Supply GI50 value. Item: CCOP(=O)(CCN1CCN(CCCCCOc2cc3c(cc2OC)C(=O)N2CCC[C@H]2C=N3)CC1)OCC 3620 nM

Identify measured GI50 corresponding to O=C(CCCCCNC1=CC(=O)c2ccccc2C1=O)NCCC[Te]c1ccccc1 1370 nM

Please supply the value of reported GI50 for the item Nc1ncnc2c1nc(N)n2C1OC(CO)C(O)C1O (centres undefined) 1250 nM

Output measured GI50 for this item: C[C@@H](Oc1cc(-c2cnn(C3CC4(CNC4)C3)c2)cnc1N)c1c(Cl)ccc(F)c1Cl 3920 nM

Report measured GI50; entry is CS(=O)/C(C#N)=C\C=C\c1cccc(Cl)c1 (centres undefined) 1870 nM

State its GI50: Cc1cc(Br)c2nsnc2c1[N+](=O)[O-] 3880 nM

// Input: NS(=O)(=O)c1cccc(-c2cc3ccncc3cc2OCc2ccccc2)c1 . Output its GI50 only. 4830 nM

Consider the compound Cc1ccn2c(-c3csc(Nc4cccc(O)c4)n3)c(C)nc2c1 . State its measured GI50. 478 nM

Read the entry O=c1c(-c2ccc3c(c2)OCO3)coc2c(CO)c(O)ccc12 and write its reported GI50. 1910 nM

Item O=[N+]([O-])c1ccc(N/N=C/c2ccccc2O)nc1 : provide GI50 1610 nM

Give me measured GI50, please, for this compound: O=Cc1c[nH]c2ccc(-c3csc4ccccc34)cc12 3310 nM

Answer with the recorded GI50 for the compound listed here: Cc1ccc(-c2c3c(N)nc(-c4ccncc4)nc3nc3c2c(C)nn3-c2ccccc2)cc1 10200 nM

Respond only with GI50 recorded for COc1ccccc1N(C(C)=O)C1=C(Cl)C(=O)c2ccccc2C1=O 1190 nM
